# TESTED_TARGET: wt PKR (Homo sapiens, UniProt P30613)
# Sequence (P30613 whole entry): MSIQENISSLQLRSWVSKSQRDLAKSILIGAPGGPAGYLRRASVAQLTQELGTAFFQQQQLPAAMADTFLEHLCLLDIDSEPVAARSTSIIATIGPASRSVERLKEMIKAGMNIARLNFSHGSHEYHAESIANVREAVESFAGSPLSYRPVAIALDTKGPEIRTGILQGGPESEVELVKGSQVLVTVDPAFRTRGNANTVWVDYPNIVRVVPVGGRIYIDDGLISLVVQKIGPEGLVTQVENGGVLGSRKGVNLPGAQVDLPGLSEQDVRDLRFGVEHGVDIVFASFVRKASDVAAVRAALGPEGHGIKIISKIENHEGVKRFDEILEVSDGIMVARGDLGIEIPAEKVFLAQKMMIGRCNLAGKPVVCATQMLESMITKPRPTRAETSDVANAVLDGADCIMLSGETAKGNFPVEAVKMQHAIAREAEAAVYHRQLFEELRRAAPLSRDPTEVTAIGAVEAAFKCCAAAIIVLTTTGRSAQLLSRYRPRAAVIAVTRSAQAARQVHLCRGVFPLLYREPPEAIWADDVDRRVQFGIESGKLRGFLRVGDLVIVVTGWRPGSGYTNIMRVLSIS
# MEASUREMENT_NOTES: wt PKR cell based assay
Each entry below carries its recorded AC50.

O=C(c1ccc(NS(=O)(=O)c2cccc3nccnc23)cc1)N1CCC(O)(c2ccns2)CC1 [Compound 517] = 101 to 1000 nM

Lab note: measured AC50 of Cc1nscc1CC1(O)CCN(C(=O)c2ccc(NS(=O)(=O)c3cccc4ncsc34)cc2)CC1 [Compound 519] was < 100 nM

Sample Cn1nccc1CC1(O)CCN(C(=O)c2ccc(NS(=O)(=O)c3cccc4nccnc34)cc2)CC1 [Compound 508] ; AC50 observed: < 100 nM

Cc1ccccc1CC1(O)CCN(C(=O)c2ccc(NS(=O)(=O)c3cccc4scnc34)cc2)CC1 [Compound 125] yielded AC50 of < 100 nM

Given item CC(F)(F)CCC1(O)CCN(C(=O)c2ccc(NS(=O)(=O)c3cccc4scnc34)cc2F)CC1 [Compound 469] , the value recorded as its AC50 is 1010 to 10000 nM

Quick note, AC50 for O=C(c1ccc(NS(=O)(=O)c2cccc3nccnc23)cc1)N1CCC(O)(C2CCC(O)CC2)CC1 (stereo not drawn) [Compound 502] landed at 101 to 1000 nM

The compound listed as CC(F)(F)CCC1(O)CCN(C(=O)c2ccc(NS(=O)(=O)c3cccc4nccnc34)cc2C#N)CC1 [Compound 492] has a reported AC50 of 101 to 1000 nM

// recorded AC50 for O=C(c1ccc(NS(=O)(=O)c2cccc3scnc23)cc1)N1CCC(O)(c2scnc2Cl)CC1 [Compound 480] : 101 to 1000 nM

* * *

Reported AC50 values follow for various compounds
# TESTED_TARGET: PKR R532W (Homo sapiens, UniProt P30613, R532W)
# Sequence (P30613 whole entry R532W): as the sequence (P30613 whole entry) above, with R532W counted along it
# MEASUREMENT_NOTES: PKR Mutant Assay, dose response (AC50), PKR R532W
# Format: biochemical
# MEASUREMENT_CONDITIONS: PKR R532W mutant enzyme
# Procedure: • PKR or PKR mutant enzyme solution was diluted in assay buffer. • 2 μL of test compound was added into wells first, and then 180 μL reaction mix was added. • Reactions mixture with test compound was assembled except for ADP, and plates were stored for 60 minutes at room temperature. • 20 uL ADP was added to start reaction at room temperature and reaction progress was measured as changes in absorbance at 340 nm wavelength at room temperature. […]

CC(C)CC1(N)CCN(C(=O)c2ccc(NS(=O)(=O)c3cccc4scnc34)cc2)CC1 = 101 to 1000 nM
Cn1nccc1CC1(O)CCN(C(=O)c2ccc(NS(=O)(=O)c3cccc4nccnc34)cc2)CC1 = < 100 nM
Cc1n[nH]c(C)c1CC1(O)CCN(C(=O)c2ccc(NS(=O)(=O)c3cccc4scnc34)cc2)CC1 = < 100 nM

Consider CC1(O)CCC(C2(O)CCN(C(=O)c3ccc(NS(=O)(=O)c4cccc5scnc45)cc3)CC2)CC1 (stereo not drawn) . Its measured AC50 is 1010 to 10000 nM

Kindly note the recorded AC50 for CS(=O)(=O)CC1(O)CCN(C(=O)c2ccc(NS(=O)(=O)c3cccc4nccnc34)cc2)CC1 , which is 101 to 1000 nM

For this compound ( O=C(c1ccc(NS(=O)(=O)c2cccc3nccnc23)cc1)N1CCC(O)(C2CCC(O)CC2)CC1 (stereo not drawn) ), measured AC50 is 101 to 1000 nM

AC50 for Cc1cc(C2(O)CCN(C(=O)c3ccc(NS(=O)(=O)c4cccc5scnc45)cc3)CC2)sn1 is < 100 nM

Form: compound = O=C(c1ccc(NS(=O)(=O)c2cccc3scnc23)cc1)N1CCC(O)(c2sncc2Cl)CC1 ; AC50 = < 100 nM

The value of AC50 measured for the compound CS(=O)(=O)CCC1(O)CCN(C(=O)c2ccc(NS(=O)(=O)c3cccc4scnc34)cc2)CC1 turned out to be > 10000 nM

* * *

Measured AC50, listed per entry for reference.
# TESTED_TARGET: wt PKR (Homo sapiens)
# MEASUREMENT_NOTES: PKR Mutant Assay, dose response (AC50), wild type PKR enzyme
# Format: biochemical
# MEASUREMENT_CONDITIONS: wild type PKR enzyme

Would you please look over these solved cases?
Cc1ccccc1CC1(O)CCN(C(=O)c2ccc(NS(=O)(=O)c3cccc4scnc34)cc2)CC1 = < 100 nM
CC1(O)CCC(C2(O)CCN(C(=O)c3ccc(NS(=O)(=O)c4cccc5scnc45)cc3)CC2)CC1 (stereo not shown) = 101 to 1000 nM
O=C1NCCC1CC1(O)CCN(C(=O)c2ccc(NS(=O)(=O)c3cccc4nccnc34)cc2)CC1 (stereo not shown) = 1010 to 10000 nM
O=C(c1ccc(NS(=O)(=O)c2cccc3nccnc23)cc1)N1CCC(O)(Cc2c(O)n[nH]c2C(F)(F)F)CC1 = 101 to 1000 nM

Reported wt PKR (Homo sapiens) AC50 for item O=C(c1ccc(NS(=O)(=O)c2cccc3nccnc23)cc1)N1CCC(O)(Cc2cn[nH]c2)CC1 was < 100 nM

The molecule O=C(c1ccc(NS(=O)(=O)c2cccc3scnc23)cc1)N1CCC(O)(Cc2cn[nH]c2)CC1 , tested on wt PKR (Homo sapiens), showed AC50 of < 100 nM

Record Cc1nscc1CC1(O)CCN(C(=O)c2ccc(NS(=O)(=O)c3cccc4ncsc34)cc2)CC1 / wt PKR (Homo sapiens), AC50 recorded as < 100 nM

* * *

Reported values of AC50 for individual entries
# TESTED_TARGET: wt PKR (Homo sapiens, UniProt P30613)
# MEASUREMENT_NOTES: PKR Mutant Assay, dose response (AC50), wild type PKR enzyme
# Assay type: biochemical
# MEASUREMENT_CONDITIONS: wild type PKR enzyme

Item: CCn1cc(CC2(O)CCN(C(=O)c3ccc(NS(=O)(=O)c4cccc5nccnc45)cc3)CC2)cn1 [Compound 503] | AC50: 101 to 1000 nM

// AC50 value for CC(F)(F)CCC1(O)CCN(C(=O)c2ccc(NS(=O)(=O)c3cccc4scnc34)cc2C#N)CC1 [Compound 477] : 101 to 1000 nM

In plain terms, CCS(=O)(=O)CC1(O)CCN(C(=O)c2ccc(NS(=O)(=O)c3cccc4nccnc34)cc2)CC1 [Compound 490] has a documented AC50 of 1010 to 10000 nM

Just so you know, measured AC50 for Cc1noc(C)c1CC1(O)CCN(C(=O)c2ccc(NS(=O)(=O)c3cccc4scnc34)cc2)CC1 [Compound 520] came out at < 100 nM

* * *

# TESTED_TARGET: PKR R532W (Homo sapiens, UniProt P30613, R532W)
# MEASUREMENT_NOTES: PKR Mutant Assay, dose response (AC50), PKR R532W
# Format: biochemical
# MEASUREMENT_CONDITIONS: PKR R532W mutant enzyme
In this section we review reported AC50 values for a set of molecules.

Consider the worked cases shown below.
Cc1nscc1CC1(O)CCN(C(=O)c2ccc(NS(=O)(=O)c3cccc4nccnc34)cc2)CC1 = < 100 nM
Nc1cnc2c(S(=O)(=O)Nc3ccc(C(=O)N4CCC(O)(CCCC(F)(F)F)CC4)cc3)cccc2n1 = < 100 nM
O=C(c1ccc(NS(=O)(=O)c2cccc3nccnc23)cc1)N1CCC(O)(Cc2c(O)n[nH]c2C(F)(F)F)CC1 = 101 to 1000 nM
Cn1ccc(CC2(O)CCN(C(=O)c3ccc(NS(=O)(=O)c4cccc5nccnc45)cc3)CC2)n1 = 101 to 1000 nM
CC(F)(F)CCC1(O)CCN(C(=O)c2ccc(NS(=O)(=O)c3cccc4scnc34)cc2C#N)CC1 = 101 to 1000 nM

API: the following record is the query input.
Entry CC(C)CC1(OP(=O)(O)O)CCN(C(=O)c2ccc(NS(=O)(=O)c3cccc4scnc34)cc2)CC1 ; AC50 = > 10000 nM

* * *

Known AC50 of a selection of compounds
# TESTED_TARGET: PKR R510Q (Homo sapiens, UniProt P30613, R510Q)
# Sequence (P30613 whole entry R510Q): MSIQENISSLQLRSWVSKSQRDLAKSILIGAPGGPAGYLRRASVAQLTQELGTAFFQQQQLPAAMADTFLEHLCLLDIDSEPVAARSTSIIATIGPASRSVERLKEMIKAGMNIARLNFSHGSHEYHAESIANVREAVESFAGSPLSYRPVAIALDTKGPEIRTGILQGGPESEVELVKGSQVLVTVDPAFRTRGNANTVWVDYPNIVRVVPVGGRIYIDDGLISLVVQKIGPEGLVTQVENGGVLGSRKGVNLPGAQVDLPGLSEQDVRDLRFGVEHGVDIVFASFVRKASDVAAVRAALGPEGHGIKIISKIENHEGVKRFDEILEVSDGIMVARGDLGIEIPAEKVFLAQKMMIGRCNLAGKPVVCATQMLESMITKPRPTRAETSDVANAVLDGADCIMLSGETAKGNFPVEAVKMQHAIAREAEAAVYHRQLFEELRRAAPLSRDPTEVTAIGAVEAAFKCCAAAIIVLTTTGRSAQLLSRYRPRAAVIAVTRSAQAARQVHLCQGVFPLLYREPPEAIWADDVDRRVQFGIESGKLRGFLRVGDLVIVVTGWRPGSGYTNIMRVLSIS
# MEASUREMENT_NOTES: PKR Mutant Assay, dose response (AC50), PKR R510Q
# Type: biochemical
# MEASUREMENT_CONDITIONS: PKR R510Q mutant enzyme

AC50 recorded for this compound, Cc1ccccc1CC1(O)CCN(C(=O)c2ccc(NS(=O)(=O)c3cccc4scnc34)cc2)CC1 , is < 100 nM

* * *

# TESTED_TARGET: UniProt:P30613
# MEASUREMENT_NOTES: PKR Mutant Assay, dose response (AC50), wild type PKR enzyme
# Assay type: biochemical
# MEASUREMENT_CONDITIONS: wild type PKR enzyme
# Description: • PKR or PKR mutant enzyme solution was diluted in assay buffer. • 2 μL of test compound was added into wells first, and then 180 μL reaction mix was added. • Reactions mixture with test compound was assembled except for ADP, and plates were stored for 60 minutes at room temperature. • 20 uL ADP was added to start reaction at room temperature and reaction progress was measured as changes in absorbance at 340 nm wavelength at room temperature. […]
AC50 values by entry

Worked cases, AC50 given:
O=C(c1ccc(NS(=O)(=O)c2cccc3scnc23)cc1)N1CCC(O)(c2scnc2Cl)CC1 = < 100 nM
CC(F)(F)CCC1(O)CCN(C(=O)c2ccc(NS(=O)(=O)c3cccc4scnc34)cc2OC(F)F)CC1 = < 100 nM
Cn1ccc(C2(O)CCN(C(=O)c3ccc(NS(=O)(=O)c4cccc5scnc45)cc3)CC2)n1 = > 10000 nM
O=C(c1ccc(NS(=O)(=O)c2cccc3nccnc23)cc1)N1CCC(O)(Cc2cc[nH]n2)CC1 = 101 to 1000 nM

The recorded AC50 for entry CC(C)CC1(O)CCN(C(=O)c2ccc(NS(=O)(=O)c3cncc4cccnc34)cc2)CC1 equals < 100 nM

In plain terms, CC(C)CC1(OC(=O)OCOP(=O)(O)O)CCN(C(=O)c2ccc(NS(=O)(=O)c3cccc4nccnc34)cc2)CC1 has a documented AC50 of 101 to 1000 nM

Recorded AC50 (compound CC(C)CC1(OP(=O)(O)O)CCN(C(=O)c2ccc(NS(=O)(=O)c3cccc4scnc34)cc2)CC1 ): > 10000 nM

This collection of values is drawn from patent US20160046579A1.
